Tested on: B. cinerea
experimentalDetails: Resazurin vital dye growth assay in microtiter wells
Type: cell-based, Botrytis cinerea
measurementContext: peptide 15 µM, resazurin dye, monitored every 12 h for seven days
Square brackets hold non-standard residues; d marks the D form. Peptide text beside a SMILES is read from it. * marks the point of attachment. Leu(ol) = CC(C)C[C@H](N)CO; Octanoyl = CCCCCCCC(=O)*; Api = NC1(C(=O)O)CCNCC1; Aib = CC(C)(N)C(=O)O
recordedMetric: fungal growth / activity against B. cinerea (in words)

CCCCCCCC(=O)NC(C)(C)C(=O)NCC(=O)N[C@@H](CC(C)C)C(=O)NC(C)(C)C(=O)N[C@@H](CCCCN)C(=O)N[C@@H](CCCCN)C(=O)N[C@@H](CC(C)C)C(=O)NC(C)(C)C(=O)NCC(=O)N[C@H](C(=O)N[C@H](CO)CC(C)C)[C@@H](C)CC [Peptide 4]; No growth occurred
CCCCCCCC(=O)NC(C)(C)C(=O)NCC(=O)N[C@@H](CC(C)C)C(=O)NC(C)(C)C(=O)NCC(=O)NCC(=O)N[C@@H](CC(C)C)C(=O)NC1(C(=O)NCC(=O)N[C@H](C(=O)N[C@H](CO)CC(C)C)[C@@H](C)CC)CCNCC1 [Peptide 8, [Api^8]-trichogin] (Octanoyl-[Aib]GL[Aib]GGL[Api]GI[Leu(ol)]); No growth occurred

* * *

Test system: B. cinerea
experimentalDetails: Resazurin vital dye growth assay in microtiter wells
Assay type: cell-based, Botrytis cinerea
measurementContext: peptide 15 µM, resazurin dye, monitored every 12 h for seven days
Square brackets hold non-standard residues; d marks the D form. Peptide text beside a SMILES is read from it. * marks the point of attachment. Leu(ol) = CC(C)C[C@H](N)CO; Octanoyl = CCCCCCCC(=O)*; Aib = CC(C)(N)C(=O)O
recordedMetric: fungal growth / activity against B. cinerea (in words)

CCCCCCCC(=O)NC(C)(C)C(=O)N[C@@H](CCCCN)C(=O)N[C@@H](CC(C)C)C(=O)NC(C)(C)C(=O)N[C@@H](CCCCN)C(=O)NCC(=O)N[C@@H](CC(C)C)C(=O)NC(C)(C)C(=O)NCC(=O)N[C@H](C(=O)N[C@H](CO)CC(C)C)[C@@H](C)CC [Peptide 1] (Octanoyl-[Aib]KL[Aib]KGL[Aib]GI[Leu(ol)]); delayed growth
CCCCCCCC(=O)NC(C)(C)C(=O)N[C@@H](CCCCN)C(=O)N[C@@H](CC(C)C)C(=O)NC(C)(C)C(=O)NCC(=O)NCC(=O)N[C@@H](CC(C)C)C(=O)NC(C)(C)C(=O)NCC(=O)N[C@H](C(=O)N[C@H](CO)CC(C)C)[C@@H](C)CC [Peptide 2] (Octanoyl-[Aib]KL[Aib]GGL[Aib]GI[Leu(ol)]); delayed growth
CCCCCCCC(=O)NC(C)(C)C(=O)NCC(=O)N[C@@H](CC(C)C)C(=O)NC(C)(C)C(=O)N[C@@H](CCCCN)C(=O)NC(C)(C)C(=O)N[C@@H](CC(C)C)C(=O)NC(C)(C)C(=O)NCC(=O)N[C@H](C(=O)N[C@H](CO)CC(C)C)[C@@H](C)CC [Peptide 6]; delayed growth

* * *

Tested on: B. cinerea
experimentalDetails: Resazurin vital dye growth assay in microtiter wells
Type: cell-based, Botrytis cinerea
Set-up: key: –, no activity
measurementContext: summary of performance of Lys-containing analogs against B. cinerea
Marks after values point to notes of the source that are not given here. Square brackets hold non-standard residues; d marks the D form. Peptide text beside a SMILES is read from it. * marks the point of attachment. Leu(ol) = CC(C)C[C@H](N)CO; Octanoyl = CCCCCCCC(=O)*; Aib = CC(C)(N)C(=O)O
recordedMetric: Antifungal Activity

Observe how each entry below is paired with its result.
CCCCCCCC(=O)NC(C)(C)C(=O)N[C@@H](CCCCN)C(=O)N[C@@H](CC(C)C)C(=O)NC(C)(C)C(=O)NCC(=O)N[C@@H](CCCCN)C(=O)N[C@@H](CC(C)C)C(=O)NC(C)(C)C(=O)NCC(=O)N[C@H](C(=O)N[C@H](CO)CC(C)C)[C@@H](C)CC [Peptide 7]; ++
CCCCCCCC(=O)NC(C)(C)C(=O)N[C@@H](CCCCN)C(=O)N[C@@H](CC(C)C)C(=O)NC(C)(C)C(=O)N[C@@H](CCCCN)C(=O)NCC(=O)N[C@@H](CC(C)C)C(=O)NC(C)(C)C(=O)NCC(=O)N[C@H](C(=O)N[C@H](CO)CC(C)C)[C@@H](C)CC [Peptide 1] (Octanoyl-[Aib]KL[Aib]KGL[Aib]GI[Leu(ol)]); + ^a
CCCCCCCC(=O)NC(C)(C)C(=O)NCC(=O)N[C@@H](CC(C)C)C(=O)NC(C)(C)C(=O)N[C@@H](CCCCN)C(=O)NCC(=O)N[C@@H](CC(C)C)C(=O)NC(C)(C)C(=O)NCC(=O)N[C@H](C(=O)N[C@H](CO)CC(C)C)[C@@H](C)CC [Peptide 3]; –
CCCCCCCC(=O)NC(C)(C)C(=O)NCC(=O)N[C@@H](CC(C)C)C(=O)NC(C)(C)C(=O)N[C@@H](CCCCN)C(=O)N[C@@H](CCCCN)C(=O)N[C@@H](CC(C)C)C(=O)NC(C)(C)C(=O)NCC(=O)N[C@H](C(=O)N[C@H](CO)CC(C)C)[C@@H](C)CC [Peptide 4]; ++++
CCCCCCCC(=O)NC(C)(C)C(=O)NCC(=O)N[C@@H](CC(C)C)C(=O)NC(C)(C)C(=O)NCC(=O)N[C@@H](CCCCN)C(=O)N[C@@H](CC(C)C)C(=O)NC(C)(C)C(=O)NCC(=O)N[C@H](C(=O)N[C@H](CO)CC(C)C)[C@@H](C)CC [Peptide 5]; ++++

Problem: I am curious: what Antifungal Activity value has been reported for CCCCCCCC(=O)NC(C)(C)C(=O)N[C@@H](CCCCN)C(=O)N[C@@H](CC(C)C)C(=O)NC(C)(C)C(=O)NCC(=O)NCC(=O)N[C@@H](CC(C)C)C(=O)NC(C)(C)C(=O)NCC(=O)N[C@H](C(=O)N[C@H](CO)CC(C)C)[C@@H](C)CC [Peptide 2] (Octanoyl-[Aib]KL[Aib]GGL[Aib]GI[Leu(ol)]) ?
Solution: ++

Problem: Input CCCCCCCC(=O)NC(C)(C)C(=O)NCC(=O)N[C@@H](CC(C)C)C(=O)NC(C)(C)C(=O)N[C@@H](CCCCN)C(=O)NC(C)(C)C(=O)N[C@@H](CC(C)C)C(=O)NC(C)(C)C(=O)NCC(=O)N[C@H](C(=O)N[C@H](CO)CC(C)C)[C@@H](C)CC [Peptide 6]
Solution: +
